Test system: Streptococcus
Assay: In vitro antimicrobial activity against aerobic bacteria Streptococcus D 9960
Type: functional
Response field label takes True when MIC is strictly below 8 µg/mL and False in all other cases.

Known results for molecules:
molecule	class name
CC[C@H]1C[C@@H](C)C(=O)/C=C/C(C)=C/[C@H](CO[C@@H]2O[C@H](C)[C@@H](O)[C@@H](OC)[C@H]2OC)[C@@H](CC)OC(=O)C[C@@H](O)[C@H](C)[C@H]1O[C@@H]1O[C@H](C)[C@@H](O)[C@H](N(C)C)[C@H]1O	False
CC[C@H]1OC(=O)C[C@@H](O)[C@H](C)[C@@H](O[C@@H]2O[C@H](C)[C@@H](O[C@H]3C[C@@](C)(O)[C@@H](O)[C@H](C)O3)[C@H](N(C)C)[C@H]2O)[C@@H](CC=O)C[C@@H](C)C(=O)/C=C/C(C)=C/[C@@H]1CO[C@@H]1O[C@H](C)[C@@H](O)[C@@H](OC)[C@H]1OC [TYLOSIN]	True
CC[C@H]1OC(=O)C[C@@H](O)[C@H](C)[C@@H](O[C@@H]2O[C@H](C)[C@@H](O)[C@H](N(C)C)[C@H]2O)[C@@H](CCOc2ccc(-c3ccccc3)cc2)C[C@@H](C)C(=O)/C=C/C(C)=C/[C@@H]1CO[C@@H]1O[C@H](C)[C@@H](O)[C@@H](OC)[C@H]1OC	True
CC[C@H]1OC(=O)C[C@@H](O)[C@H](C)[C@@H](O[C@@H]2O[C@H](C)[C@@H](O[C@H]3C[C@@](C)(O)[C@@H](O)[C@H](C)O3)[C@H](N(C)C)[C@H]2O)[C@@H](CCOc2ccccc2)C[C@@H](C)C(=O)/C=C/C(C)=C/[C@@H]1CO[C@@H]1O[C@H](C)[C@@H](O)[C@@H](OC)[C@H]1OC	False
CC[C@H]1OC(=O)C[C@@H](O)[C@H](C)[C@@H](O[C@@H]2O[C@H](C)[C@@H](O[C@H]3C[C@@](C)(O)[C@@H](O)[C@H](C)O3)[C@H](N(C)C)[C@H]2O)[C@@H](CC=O)C[C@@H](C)C(=O)/C=C/C(C)=C/[C@@H]1CO	True
CC[C@H]1OC(=O)C[C@@H](O)[C@H](C)[C@@H](O[C@@H]2O[C@H](C)[C@@H](O)[C@H](N(C)C)[C@H]2O)[C@@H](CCOc2ccc(C(=O)c3ccccc3)cc2)C[C@@H](C)C(=O)/C=C/C(C)=C/[C@@H]1CO[C@@H]1O[C@H](C)[C@@H](O)[C@@H](OC)[C@H]1OC	True
CC[C@H]1OC(=O)C[C@@H](O)[C@H](C)[C@@H](O[C@@H]2O[C@H](C)[C@@H](O)[C@H](N(C)C)[C@H]2O)[C@@H](CCN2C(=O)c3ccccc3C2=O)C[C@@H](C)C(=O)/C=C/C(C)=C/[C@@H]1CO[C@@H]1O[C@H](C)[C@@H](O)[C@@H](OC)[C@H]1OC	True
CC[C@H]1OC(=O)[C@H](C)[C@@H](O[C@H]2C[C@@](C)(OC)[C@@H](O)[C@H](C)O2)[C@H](C)[C@@H](O[C@@H]2O[C@H](C)C[C@H](N(C)C)[C@H]2O)[C@](C)(O)C[C@@H](C)C(=O)[C@H](C)[C@@H](O)[C@]1(C)O [ERYTHROMYCIN]	True

Lab note: next molecule to report on.
Data request: Does CC[C@H]1OC(=O)C[C@@H](O)[C@H](C)[C@@H](O[C@@H]2O[C@H](C)[C@@H](O)[C@H](N(C)C)[C@H]2O)[C@@H](CC=O)C[C@@H](C)C(=O)/C=C/C(C)=C/[C@@H]1CO have MIC strictly under 8 µg/mL?
Data returned: True
